The entries below are paired with their reported Binding to Protein S in EDTA (OD).
Molecular target: T1, human Protein S (human, UniProt P07225 42-676)
T1 construct: also called ProS; ProS1
T1 sequence: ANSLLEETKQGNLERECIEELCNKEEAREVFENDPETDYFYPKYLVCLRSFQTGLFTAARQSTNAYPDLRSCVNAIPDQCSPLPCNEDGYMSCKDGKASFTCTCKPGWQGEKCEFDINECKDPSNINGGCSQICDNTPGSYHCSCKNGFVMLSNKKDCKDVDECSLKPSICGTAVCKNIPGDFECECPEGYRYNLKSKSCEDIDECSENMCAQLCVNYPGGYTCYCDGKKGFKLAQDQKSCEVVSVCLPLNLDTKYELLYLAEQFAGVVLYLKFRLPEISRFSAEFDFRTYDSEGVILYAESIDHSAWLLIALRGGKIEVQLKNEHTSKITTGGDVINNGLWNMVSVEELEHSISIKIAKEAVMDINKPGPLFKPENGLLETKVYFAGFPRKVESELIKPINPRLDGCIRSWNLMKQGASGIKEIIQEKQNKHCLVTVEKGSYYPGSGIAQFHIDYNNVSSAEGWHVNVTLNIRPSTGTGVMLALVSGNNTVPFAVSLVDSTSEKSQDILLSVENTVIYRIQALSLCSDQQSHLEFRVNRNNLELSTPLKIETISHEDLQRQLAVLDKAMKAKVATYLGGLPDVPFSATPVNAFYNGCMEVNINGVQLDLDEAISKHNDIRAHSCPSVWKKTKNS
Experiment: ELISA; plate coated with human Protein S; 1 µg/ml antibody; 1 mM EDTA
Protocol: Calcium dependence of binding was determined using an ELISA based method. Briefly, high binding ELISA plates were coated with human Protein S. Then, buffer containing 1 μg/ml of antibody was applied to the well with either buffer containing 1 mM EDTA or 1 mM calcium chloride.

Look over these answered cases.
>>> observed_value("Antibody 20 (antibody, V domains shown, Human variable region with rat Fc) VH: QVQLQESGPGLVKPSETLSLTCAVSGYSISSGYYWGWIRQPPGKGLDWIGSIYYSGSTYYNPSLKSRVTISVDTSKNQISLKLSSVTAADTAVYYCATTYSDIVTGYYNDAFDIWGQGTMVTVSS VL: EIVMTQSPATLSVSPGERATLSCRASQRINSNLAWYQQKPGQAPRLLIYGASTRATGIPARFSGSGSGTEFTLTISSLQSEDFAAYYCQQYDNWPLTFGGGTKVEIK")
"0.26 OD"
>>> observed_value("Antibody 24 (antibody, V domains shown, Human variable region with rat Fc) VH: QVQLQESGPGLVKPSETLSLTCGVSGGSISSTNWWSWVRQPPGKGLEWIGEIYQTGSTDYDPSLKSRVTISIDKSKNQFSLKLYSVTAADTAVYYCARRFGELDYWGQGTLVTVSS VL: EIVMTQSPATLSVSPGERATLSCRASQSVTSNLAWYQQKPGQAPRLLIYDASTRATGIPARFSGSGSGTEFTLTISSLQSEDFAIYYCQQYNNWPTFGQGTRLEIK")
"0.06 OD"

Need Binding to Protein S in EDTA (OD) of Antibody 31 (antibody, V domains shown, Human variable region with rat Fc) VH: QVQLQESGPGLVKPSETLSLTCTVSGGSISGNYWSWIRQPPGKGLEWIGYIYYSGSTNYNPSLKSRVTISVDTSKNQFSLKLSSVTAADTAVYYCARDLDYFTWGAYSDWYFDLWGRGTLVTVSS VL: DIQMTQSPSSLSASVGDRVTITCRASQSISTFLNWYQQKPGKAPKLLIYATSSLRSGVPSRFSGSGSGTDFTLTISSLQPEDFAIYYCQQSYSTPRTFGQGTQVEIK , thanks.
0.63 OD

Need Binding to Protein S in EDTA (OD) of Antibody 36 (antibody, V domains shown, Human variable region with rat Fc) VH: EVQLVESGGGLVKPGGSLRLSCAASGFTFSSYNMNWVRQAPGRGLDWVSSISSSSSYIYYADSVKGRFTISRDNAKNSLYLQMNTLRAEDTAVYYCARDEEWELLTGFDYWGQGTLVTVSS VL: DIQMTQSPSSLSASVGDRVTITCRASQGINNYLAWFQQKPGKAPKSLIYAASNLQSGVPLKFSGSGSGTDFTLTISSLQPEDFATYYCQQYNSYPITFGQGTRLEIK , thanks.
0.03 OD

Need Binding to Protein S in EDTA (OD) of Antibody 14 (antibody, V domains shown, Human variable region with rat Fc) VH: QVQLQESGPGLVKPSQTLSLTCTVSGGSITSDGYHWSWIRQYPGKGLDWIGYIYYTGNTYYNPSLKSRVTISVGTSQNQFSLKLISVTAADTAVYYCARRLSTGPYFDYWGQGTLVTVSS VL: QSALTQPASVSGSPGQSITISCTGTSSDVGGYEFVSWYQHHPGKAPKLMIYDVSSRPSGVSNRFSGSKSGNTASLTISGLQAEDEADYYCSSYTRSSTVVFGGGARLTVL , thanks.
0.75 OD

Need Binding to Protein S in EDTA (OD) of Antibody 16 (antibody, V domains shown, Human variable region with rat Fc) VH: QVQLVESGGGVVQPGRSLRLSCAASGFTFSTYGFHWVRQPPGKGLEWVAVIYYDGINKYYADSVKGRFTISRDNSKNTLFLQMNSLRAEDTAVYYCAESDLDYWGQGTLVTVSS VL: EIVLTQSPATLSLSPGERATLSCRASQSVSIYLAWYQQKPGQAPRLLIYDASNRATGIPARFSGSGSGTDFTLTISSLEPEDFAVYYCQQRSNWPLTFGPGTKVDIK , thanks.
0.17 OD

Need Binding to Protein S in EDTA (OD) of Antibody 34 (antibody, V domains shown) VH: QVQLQQSGTELVRPGTSVKMSCKAAGYTFTNHWIGWVKQRPGHGLEWIGDIYPGGGYTNYNEKFKGKASLTADTSSTTAYMQLSSLTSEDSAIYYCSRFGDQNWAWFAYWGQGTLVTVSA VL: DIQMNQSPSSLSASLGDTITITCRASQNIHMWLSWYQQKPGNIPKLLIFKTSNLHTGVPSRFSGSGSGTDFTLTISSLQPEDIATYYCLQGQSYPFTFGGGTKLEIK , thanks.
0.06 OD

Need Binding to Protein S in EDTA (OD) of Antibody 15 (antibody, V domains shown, Human variable region with rat Fc) VH: EVQLVESGGGLVQPGRSLRLSCAASGFTFDDYAMHWVRQAPGKGLEWVSGITWNSGNIGYADSVKGRFTISRDNAKNSLYLHMNSLRIEDTAFYYCAKGRAVSDTFDIWGQGTMVTVSS VL: SYELNQPPSVSVSPGQTASITCSGDKLGDKYASWYQQKPGQSPVVAIYQNSKRPSGIPERFSASNSGNTATLTISGTQALDEADYYCQAWDSSTWVFGGGTKLTVL , thanks.
0.07 OD

Need Binding to Protein S in EDTA (OD) of Antibody 35 (antibody, V domains shown, Human variable region with rat Fc) VH: QLQLQESGPGLVKPSETLSLTCTVSGGSITNSNYYWGWIRQPPGKGLEWIGSVYYSGTTYYNPSLKSRVTISVDPSKNQFSLKLSSVTAADTAVYYCVRESESYYYYGSDVWGQGTTVTVSS VL: DIQMTQSPSSLSASVGDRVTITCRASQGINNYLAWFQQKPGKAPKSLIYAASSLQSGVPSKFSGSGSGTDFTLTISSLQPEDFATYYCQQYNSYPRTFGQGTKVEIK , thanks.
0.11 OD
